Measured values drawn from paper PMC8809517 for this set.

Target: T1, GFP-9S library array, motif 4 ND N98P;D124N (synthetic construct, N98P;D124N)
T1 chain: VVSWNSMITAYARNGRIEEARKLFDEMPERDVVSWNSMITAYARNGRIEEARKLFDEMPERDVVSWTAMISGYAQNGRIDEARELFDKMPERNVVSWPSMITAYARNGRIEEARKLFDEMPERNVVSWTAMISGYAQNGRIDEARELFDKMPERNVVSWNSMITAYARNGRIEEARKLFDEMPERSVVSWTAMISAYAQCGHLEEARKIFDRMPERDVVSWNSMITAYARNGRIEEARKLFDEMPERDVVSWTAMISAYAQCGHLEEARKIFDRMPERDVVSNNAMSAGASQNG
Assay: high-throughput RNA pulldown from lysate on Ni-NTA beads; HRP: 50 mM Tris pH 8, 150 mM NaCl, 1 mM beta-mercaptoethanol, 50 ug/ml BSA, 3 ug/ml yeast RNA, 0.5% heparin; ITC and FP: Tris pH 8, 200 mM KCl, 5% glycerol; MST: 50 mM Tris pH 8, 200 mM NaCl, 1 mM DTT, BSA, heparin, 0.05% Tween 20
Conditions: tags: N-terminal His-eGFP; label: 5' Cy5
pKd: −log10 of the molar value.
test-readout: pKd

binder	test-readout	measured-result
AUUAGACGUGA (ssRNA) [Cy5-rpoA-G]	pKd	6.79
AUUACACGUGA (ssRNA) [Cy5-rpoA]	pKd	6.77
